B1: CCND2 (parent)
chain: YFKCVQKDIQPYMRRMVATWMLEV

- Variants of: B1
- Test protocol: protein stability index of a GFP-peptide fusion (GPS, HEK-293T) (PSI 1-6); higher = more stable;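 note: lentivirally expressed fusions sorted by FACS into six bins by GFP to DsRed ratio, PSI derived from sequencing read proportions per bin multiplied by bin number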
- Experimental conditions: c terminus: a fixed tail appended
Measured property: protein stability index
// response body must contain only the number

## Task Looking for the measured protein stability index of YFKCVQKDIQPYIRRMVATWMLEV [M13I] , can you help?
## Result 3.3

## Task Field request: protein stability index | item: YFKCVQKDILPYMRRMVATWMLEV [Q10L]
## Result 2.64

## Task GET /values?readout=protein stability index&item= YFKCVQKDICPYMRRMVATWMLEV [Q10C]
## Result 3.12

## Task Given YFKCVQKDIAPYMRRMVATWMLEV [Q10A] , state its recorded protein stability index.
## Result 3.8

## Task Consider the variant shown here: YVKCVQKDIQPYMRRMVATWMLEV [F2V] What is its recorded protein stability index?
## Result 2.15

## Task Any idea what its protein stability index is? The variant is YFKCVQTDIQPYMRRMVATWMLEV [K7T]
## Result 3.22

## Task Item YFKCVQKDITPYMRRMVATWMLEV [Q10T] has what recorded protein stability index?
## Result 2.71

## Task Name the reported protein stability index value associated with the variant YFKCVQKDIQPYMRRGVATWMLEV [M16G]
## Result 3.04

## Task # get_value(readout='protein stability index', item= YFKCVQKDIQPYMRRMVATWMLER [V24R] )
## Result 2.65

## Task Please give the measured protein stability index for this variant: YFKCVQKSIQPYMRRMVATWMLEV [D8S]
## Result 3.28

## Task Report protein stability index for FFKCVQKDIQPYMRRMVATWMLEV [Y1F] please.
## Result 2.3

## Task So what's the measured protein stability index for this one? AFKCVQKDIQPYMRRMVATWMLEV [Y1A]
## Result 3.09

## Task What does the data say about its protein stability index? Entry: YFKCVQKDIQPYMRRMVATWMYEV [L22Y]
## Result 2

## Task What value of protein stability index has been reported for the following variant? YFKCVQKDIQPYMRHMVATWMLEV [R15H]
## Result 2.75

## Task Which protein stability index is reported for this variant? YFKCVQKDIQPYMRRMVATNMLEV [W20N]
## Result 1.24

## Task What protein stability index value was documented for this variant, YFKCVQIDIQPYMRRMVATWMLEV [K7I] ?
## Result 3.33

## Task What protein stability index value was documented for this variant, YFKCVQKDIQSYMRRMVATWMLEV [P11S] ?
## Result 2.5

## Task Which protein stability index value belongs to YFKCVQKDIQPYMDRMVATWMLEV [R14D] ?
## Result 2.16

## Task Given the entry YFKCVQKDIQPYDRRMVATWMLEV [M13D] , report its measured protein stability index.
## Result 2.8

## Task Query (variant): YFKCVQKDIQPYMRREVATWMLEV [M16E] ; field requested: protein stability index
## Result 2.45

## Task Report protein stability index for YFKCVQKDIQPYMRRMVATWQLEV [M21Q] please.
## Result 1.76

## Task Recorded protein stability index for YFKCVQKDIQPYMRRMVATWMHEV [L22H] , please?
## Result 1.59

## Task Return reported protein stability index; argument: YFKCVQKDIQNYMRRMVATWMLEV [P11N]
## Result 2.54

## Task // lookup protein stability index for YFKCVQKDIQPYMRRMVWTWMLEV [A18W]
## Result 2.98

## Task Recorded protein stability index for YFKCAQKDIQPYMRRMVATWMLEV [V5A] , please?
## Result 2.25

## Task Item YFKCVQKDIQPYMRRMVATWMPEV [L22P] has what recorded protein stability index?
## Result 1.63

## Task Value lookup for protein stability index; key = YFKCVQKDTQPYMRRMVATWMLEV [I9T]
## Result 3.39

## Task If you can, please state the reported protein stability index value of YFKCVQKDIEPYMRRMVATWMLEV [Q10E] .
## Result 2.32

## Task # query: protein stability index of entry YFKCVQKDIGPYMRRMVATWMLEV [Q10G]
## Result 2.42

## Task Find the recorded protein stability index belonging to YFKCVQKDIQPYMPRMVATWMLEV [R14P] and report it.
## Result 3.71

## Task Which protein stability index value is on record for YFKCVQKDIQPKMRRMVATWMLEV [Y12K] ?
## Result 3.07

## Task Value lookup for protein stability index; key = YFKCVQKDIQPYMRRMVATWMIEV [L22I]
## Result 2.61

## Task Requested field: protein stability index. Item: YFKCVQKDIQPYMRRMVATWMEEV [L22E]
## Result 1.74

## Task Please give the measured protein stability index for this variant: YFKCWQKDIQPYMRRMVATWMLEV [V5W]
## Result 2.9

## Task Sample YFKCVQKDIQPYERRMVATWMLEV [M13E] — what was its protein stability index?
## Result 2.88

## Task Can you share its protein stability index? I mean this variant: YFKCVQKDIQPYMRRMVATWMLQV [E23Q]
## Result 2.13

## Task For YFKCVQKDIQPAMRRMVATWMLEV [Y12A] , what is its reported protein stability index?
## Result 3.33

## Task Record request: protein stability index value, item YFKCVQKDIQPYMRRMVATWMKEV [L22K]
## Result 2.34

## Task Suppose we examine the variant YFKCVQKDIQPYMTRMVATWMLEV [R14T] ; what protein stability index value has been reported?
## Result 4.32

## Task # get_value(readout='protein stability index', item= YFKCVQKDLQPYMRRMVATWMLEV [I9L] )
## Result 3.16

## Task I am curious: what protein stability index value has been reported for YFKCVQKDIQPYMRRFVATWMLEV [M16F] ?
## Result 3.28

## Task Fill in the blank: the reported protein stability index of YFKCHQKDIQPYMRRMVATWMLEV [V5H] is ____.
## Result 2.23

## Task Param item = YFKCVQKDIQPYMRRMVAEWMLEV [T19E] ; retrieve measured protein stability index.
## Result 1.44

## Task Item YGKCVQKDIQPYMRRMVATWMLEV [F2G] has what recorded protein stability index?
## Result 3.84

## Task Entry YFKCVQFDIQPYMRRMVATWMLEV [K7F] : reported protein stability index = ?
## Result 1.98

## Task May I ask what protein stability index has been recorded for YFKCVQKDIQPYMRRMVNTWMLEV [A18N] ?
## Result 3.36
